Just for reference, patent US20250026748A1 is where these values come from.

Biological target: PolQ ATPase enzyme (1-894) (Homo sapiens (Human), UniProt O75417)
Sequence (O75417 1-894): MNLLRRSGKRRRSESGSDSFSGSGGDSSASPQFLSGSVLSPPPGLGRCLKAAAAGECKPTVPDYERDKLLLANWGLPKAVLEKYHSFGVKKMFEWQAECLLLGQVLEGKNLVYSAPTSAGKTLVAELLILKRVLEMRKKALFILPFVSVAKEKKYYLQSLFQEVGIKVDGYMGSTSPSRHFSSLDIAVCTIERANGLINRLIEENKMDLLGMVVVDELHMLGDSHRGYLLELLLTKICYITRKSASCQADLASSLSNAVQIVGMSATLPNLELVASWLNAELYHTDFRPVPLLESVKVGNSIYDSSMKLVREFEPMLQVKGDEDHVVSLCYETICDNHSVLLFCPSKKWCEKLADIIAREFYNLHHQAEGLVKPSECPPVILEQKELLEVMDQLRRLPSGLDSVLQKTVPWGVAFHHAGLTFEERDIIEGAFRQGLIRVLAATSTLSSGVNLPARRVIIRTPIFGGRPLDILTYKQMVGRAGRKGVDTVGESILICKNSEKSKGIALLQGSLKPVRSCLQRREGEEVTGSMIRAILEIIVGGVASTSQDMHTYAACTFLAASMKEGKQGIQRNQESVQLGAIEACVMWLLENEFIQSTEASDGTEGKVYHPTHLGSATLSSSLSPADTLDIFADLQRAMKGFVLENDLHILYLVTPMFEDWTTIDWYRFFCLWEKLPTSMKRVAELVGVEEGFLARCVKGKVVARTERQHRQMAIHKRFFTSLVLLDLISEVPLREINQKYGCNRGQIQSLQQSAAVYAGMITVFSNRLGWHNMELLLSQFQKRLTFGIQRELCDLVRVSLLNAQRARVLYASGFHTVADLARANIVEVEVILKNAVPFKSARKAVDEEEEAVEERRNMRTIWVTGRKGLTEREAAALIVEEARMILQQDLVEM
Assay: Polθ ATPase enzymatic assay (0.5 nM enzyme concentration), ADP-Glo
Format: biochemical
Conditions: average IC50; 0.5 nM PolQ ATPase enzyme (1-894)
Experimental: PolQ ATPase enzyme (1-894) at 0.5 nM is incubated with a 10-point concentration response of inhibitors for 15 min at rt in the following buffer: 50 mM Tris Cl pH 7.5, 10% glycerol, 5 mM DTT, 10 mM MgCl2, 0.1 mg/ml BSA. […] Enzymatic reaction proceeds at rt for 180 min ATP consumption is measured using the ADP-Glo assay from Promega. Luminescence is read on the Envision and IC50 are determined using the variable slope 4-parameters equation. […]
experimentalReadout: IC50 (nM)
# number only, unit nM dropped from output

Recorded results for 2 compounds are shown here.
[
  {
    "compound": "COc1cnc(Cl)cc1-c1cnccc1C(=O)Nc1nnc(C#CC2CC2)s1 [Compound 25]",
    "IC50, nM": 1.3
  },
  {
    "compound": "COc1cnc(Cl)cc1-c1cnccc1C(=O)Nc1nnc([C@@H]2C[C@H]2c2ccc(C#N)c(C)c2)s1 [Compound 287]",
    "IC50, nM": 0.93
  }
]

Task: State the recorded IC50 for this entry: COc1cnc(C(F)F)cc1-c1cc(C2C[C@@H]2C(=O)N(C)C)ccc1C(=O)Nc1nnc(C#CC2CC2)s1 (stereo partly shown) [Compound 362]
Output: 1.4

###

molecular target: PolQ ATPase enzyme (1-894) (Homo sapiens (Human), UniProt O75417); experiment: Polθ ATPase enzymatic assay (0.5 nM enzyme concentration), ADP-Glo; type: biochemical; conditions: average IC50; 0.5 nM PolQ ATPase enzyme (1-894)
Listed below: IC50 values for each entry.
# number only, unit nM dropped from output

Recorded results for 2 compounds are shown here.
[
  {
    "compound": "COc1cnc(C(F)F)cc1-c1cc(N2CCOCC2)ncc1C(=O)Nc1nnc(C#CC2CC2)s1 [Compound 235]",
    "numericResult": 19
  },
  {
    "compound": "Cn1cc(-c2cc(Cl)ncc2OC(F)F)c(C(=O)Nc2nnc(C#CC3CC3)s2)cc1=O [Compound 74]",
    "numericResult": 0.73
  }
]

Task: State the recorded IC50 for this entry: COc1cnc(C(F)F)cc1-c1cc(-c2nnc(N(C)C)o2)ccc1C(=O)Nc1nnc(C#CC2CC2)s1 [Compound 408]
Output: 1.4

###

biological target: PolQ ATPase enzyme (1-894) (Homo sapiens (Human), UniProt O75417); test: Polθ ATPase enzymatic assay (0.5 nM enzyme concentration), ADP-Glo; format: biochemical; conditions: average IC50; 0.5 nM PolQ ATPase enzyme (1-894)
experimentalReadout: IC50 (nM)
# number only, unit nM dropped from output

Recorded results for 2 compounds are shown here.
[
  {
    "compound": "COc1cnc(Cl)cc1-c1cncc(F)c1C(=O)Nc1nnc(C#CC2CC2)s1 [Compound 327]",
    "measuredTarget": "PolQ ATPase enzyme (1-894) (Homo sapiens (Human), UniProt O75417)",
    "IC50, nM": 4.1
  },
  {
    "compound": "COc1cnc(C(F)F)cc1-c1cc(N(C)Cc2cnn(C)c2)ccc1C(=O)Nc1nnc(C#CC2CC2)s1 [Compound 136]",
    "measuredTarget": "PolQ ATPase enzyme (1-894) (Homo sapiens (Human), UniProt O75417)",
    "IC50, nM": 8.5
  }
]

Now look at this one.
Task: State the recorded IC50 for this entry: COc1cnc(C(F)F)cc1-c1cc(OC[C@@H]2CCC(=O)N2C)ncc1C(=O)Nc1nnc(C#CC2CC2)s1 [Compound 147]
Output: 0.31
